# experiment-summary: The drug is tested on Anaerococcus hydrogenalis strain: DSM7454 for biotransformation. The drug concentrations were measured before and after a 12-h incubation by liquid-chromatography-coupled mass spectrometry (LC–MS)
# condition-details: 2 µM
readout-label: Bacterial Biotransformation

Below, 10 compounds whose answers are already recorded.
* CC(=O)OCC(=O)[C@@]1(O)[C@@H](C)C[C@H]2[C@@H]3CCC4=CC(=O)C=C[C@]4(C)[C@@]3(F)[C@@H](O)C[C@@]21C [BETAMETHASONE ACETATE] | Compound NOT metabolized
* Cc1nc(Nc2ncc(C(=O)Nc3c(C)cccc3Cl)s2)cc(N2CCN(CCO)CC2)n1.O [DASATINIB] | Compound NOT metabolized
* C[C@]12CCC(=O)C=C1[C@@H]1C[C@@H]1[C@H]1[C@@H]3[C@@H]4C[C@@H]4[C@@]4(CCC(=O)O4)[C@@]3(C)CC[C@@H]12 [DROSPIRENONE] | Compound NOT metabolized
* Cc1nc(-c2ccc(OCC(C)C)c(C#N)c2)sc1C(=O)O [FEBUXOSTAT] | Compound NOT metabolized
* Fc1ccc([C@@H]2CCNC[C@H]2COc2ccc3c(c2)OCO3)cc1 [PAROXETINE] | Compound metabolized
* CC(C)NCC(O)c1ccc(NS(C)(=O)=O)cc1 (stereo unspecified) [SOTALOL] | Compound NOT metabolized
* CCOc1ccc(NC(C)=O)cc1 [PHENACETIN] | Compound NOT metabolized
* C[C@]12C=CC(=O)C=C1CC[C@@H]1[C@@H]2C(=O)C[C@@]2(C)[C@H]1CC[C@]2(O)C(=O)CO [PREDNISONE] | Compound NOT metabolized
* CCN(CC)C(=O)/C(C#N)=C/c1cc(O)c(O)c([N+](=O)[O-])c1 [ENTACAPONE] | Compound metabolized
* CC#C[C@]1(O)CC[C@H]2[C@@H]3CCC4=CC(=O)CCC4=C3[C@@H](c3ccc(N(C)C)cc3)C[C@@]21C [MIFEPRISTONE] | Compound NOT metabolized

INPUT: Quickly give me recorded Bacterial Biotransformation for NS(=O)(=O)c1cc2c(cc1Cl)N=C(CSCc1ccccc1)NS2(=O)=O [BENZTHIAZIDE]
OUTPUT: Compound NOT metabolized

INPUT: Quickly give me recorded Bacterial Biotransformation for CCN(CC)CC#CCOC(=O)C(O)(c1ccccc1)C1CCCCC1.Cl (stereo unspecified) [OXYBUTYNIN CHLORIDE]
OUTPUT: Compound NOT metabolized

INPUT: Quickly give me recorded Bacterial Biotransformation for Cc1cc(C)cc(OCC2CNC(=O)O2)c1 (stereo unspecified) [METAXALONE]
OUTPUT: Compound NOT metabolized
